Source: PubChem BioAssay (NCI)

Test system: MOLT-4 leukemia
Assay: NCI tumour cell line growth inhibition, 48 h
Each item that follows carries a reported TGI.
Quantity measured: TGI

compound=Cc1cc2ccccc2n2c1nc1ccc(O)cc12 assay_value="> 10 µM"
compound=CC(C)=CCNc1ncnc2c1ncn2CCC(=O)O assay_value="> 100 µM"
compound=NCCOCCOCC(=O)O assay_value="> 100 µM"
compound=COc1ccc(-c2c(/C=N/OCC(=O)O)c3sc4ccccc4n3c2/C=N/OCC(=O)O)cc1 assay_value="> 50 µM"
compound="COc1c2c(c(O)c3c4c(c(C)cc13)C1OC3(C(OC)OC5CC(C)(O)C(OC6CC(C)(O)C(O)C(C)O6)C(C)O5)OC1C(OC)(O4)C31CO1)C(=O)C(O)CC2OC1CC(C)(O)C(OC(C)=O)C(C)O1 (stereo unspecified)" assay_value="0.102 µM"
compound=COc1ccc(NCn2nc(CCCCCCCCc3nn(CNc4ccc(OC)cc4)c(=S)o3)oc2=S)cc1 assay_value="> 100 µM"
compound=CCCCC[C@H]1C/C=C2/C(=O)C=C[C@@H]2C/C=C\CCCC(=O)O1 assay_value="1.06 µM"
compound="NC(=S)c1cccc(C2Nc3ccccc3O2)c1 (stereo unspecified)" assay_value="> 100 µM"
compound="C[C@@H]1CC2(C[C@@H](C)C3[C@@H](CC4(C)CCCC5C6=CC(O)(CC[C@]34C)OC6=CC(=O)OC5(C)C)O2)OC1=O (stereo partly specified)" assay_value="> 100 µM"
compound=N/C(=N\N=C/c1c(O)cc(O)cc1O)NO assay_value="> 100 µM"
compound="COC(=O)C1=C(O)c2cc(OC)c(OC)c(OC)c2C(c2ccc3c(c2)OCO3)[C@@H]1C(=O)OC (stereo partly specified)" assay_value="> 100 µM"
compound=COC(OC)c1cccnc1C assay_value="> 100 µM"
compound=CCN(CC)c1ccc(/C=N/N=C(N)N)cc1 assay_value="35.7 µM"
compound=COC(=O)CCCc1nc2ccccc2nc1N=Nc1ccccc1 assay_value="26.3 µM"
compound=CSCc1ncc(-c2ccc(C(F)(F)F)cc2)c(NC2CCCCCC2)n1 assay_value="> 10 µM"
compound=Cc1c2oc(=O)c(C#N)cc2c2ccccn12 assay_value="> 100 µM"
compound=CCOC(=O)/C=C/c1ccc([N+](=O)[O-])o1 assay_value="13 µM"
compound="c1ccc(C2N=C(c3ccccn3)C(c3ccccn3)=NC2c2ccccc2)cc1 (stereo unspecified)" assay_value="> 100 µM"
compound="CC(=O)OC1C2CCC3CC2C2(SCCS2)C31 (stereo unspecified)" assay_value="> 100 µM"
compound="CNCC(SC)c1ccc(O)c(O)c1 (stereo unspecified)" assay_value="47.2 µM"
compound=COc1ccc(C(=O)Cn2c(C(=O)c3ccc(Cl)cc3)nc(-c3ccccc3)c2-c2ccccc2)cc1 assay_value="> 100 µM"

###

Tested on: SN12C renal
Assay: NCI tumour cell line growth inhibition, 48 h
Quantity measured: TGI

compound=O=C(C#Cc1ccccc1)NC/C=C/c1ccccc1 measured_target="SN12C renal" assay_value="> 100 µM"
compound="CC1(C)Cc2ccccc2C(C)(Cl)C(=O)N1 (stereo unspecified)" measured_target="SN12C renal" assay_value="> 10 µM"
compound=C=C(CN1CCc2ccccc2C1)c1ccc(CCCC(=O)Nc2ccccc2N)cc1 measured_target="SN12C renal" assay_value="28.4 µM"
compound=COC(=O)[C@@H]1C=CCN1S(=O)(=O)c1ccc(C)cc1 measured_target="SN12C renal" assay_value="> 100 µM"
compound=COC(=O)c1c(CC(=O)OC(C)C)cc2n(c1=O)Cc1c-2nc2ccccc2c1OC measured_target="SN12C renal" assay_value="> 100 µM"
compound=C[C@@H]([C@H]1CC[C@@]2(C)[C@@H]3CC[C@@H]4C(=CC3=CC[C@]12C)CC[C@H](N(C)C)C4(C)C)N(C)C measured_target="SN12C renal" assay_value="> 100 µM"
compound=CCNc1ccc2c(c1)C(=O)N(OS(C)(=O)=O)C2=O measured_target="SN12C renal" assay_value="> 100 µM"
compound=CCOc1ccc2cc(-c3nn(CC4CCN(C)CC4)c4ncnc(N)c34)ccc2c1 measured_target="SN12C renal" assay_value="32.1 µM"
compound="COc1ccc(OCC(=O)O)c2c1CCC(C)C2=O (stereo unspecified)" measured_target="SN12C renal" assay_value="> 100 µM"
compound=C/C(=N\Nc1nc2cc(F)ccc2s1)c1ccccn1 measured_target="SN12C renal" assay_value="> 43.8 µM"
compound=O=C(O)CCN1C(=S)CSC1=S measured_target="SN12C renal" assay_value="> 100 µM"
compound=Cc1cc2ccccc2n2c1nc1ccc(O)cc12 measured_target="SN12C renal" assay_value="> 10 µM"
compound=Oc1c(NCn2nc(CCCCCCCCc3nn(CNc4ccc5ccccc5c4O)c(=S)o3)oc2=S)ccc2ccccc12 measured_target="SN12C renal" assay_value="> 100 µM"
compound=C=C1c2nc3ccccc3n2C=C(c2ccccc2)N1c1ccc(C)cc1 measured_target="SN12C renal" assay_value="> 100 µM"
compound=CSC(=S)NCc1cn(C)c2ccccc12 measured_target="SN12C renal" assay_value="80.8 µM"
compound="CCOP(=O)(OCC)C(c1ccccc1)N(C(=O)NC(F)(F)F)c1ccc(C)cc1 (stereo unspecified)" measured_target="SN12C renal" assay_value="> 100 µM"
compound=Cc1cc(C)c(-c2c(O)c(Br)c(-c3c(C)cc(C)c(Br)c3C)c(O)c2Br)c(C)c1Br measured_target="SN12C renal" assay_value="15 µM"
compound="CN1C2C=CC(=O)C1C(C#N)C2 (stereo unspecified)" measured_target="SN12C renal" assay_value="> 100 µM"
compound=O=C(OCC1=CC(=O)c2ccccc2C1=O)c1ccccc1 measured_target="SN12C renal" assay_value="28.5 µM"
compound="Cc1cc(O)c2c(c1)OC1(C)CCC3C(C)(C)CCCC34COC2C14 (stereo unspecified)" measured_target="SN12C renal" assay_value="30.8 µM"
compound=COc1ccc(CN2c3ccccc3Sc3ccccc32)cc1O measured_target="SN12C renal" assay_value="22.3 µM"
compound=O=S1(=O)CCC2=CC(C(F)(F)F)=CC(C(F)(F)F)=CN21 measured_target="SN12C renal" assay_value="3.38 µM"
compound=O=S1(=O)N=C(SCc2c[nH]c3ccccc23)N(c2ccccc2)c2ccncc21 measured_target="SN12C renal" assay_value="> 100 µM"
compound=COc1c(NC(C)=O)c2ccccc2c2ccccc12 measured_target="SN12C renal" assay_value="> 100 µM"
compound=C=C(c1ccccc1)c1cc2c(=O)[nH]ccc2n1C measured_target="SN12C renal" assay_value="> 100 µM"
compound=O=C(NCCCN1CCN(CCCNC(=O)Nc2cc(Cl)ccc2Cl)CC1)Nc1cc(Cl)ccc1Cl measured_target="SN12C renal" assay_value="> 100 µM"
compound=CCCCS(=O)(=O)c1cc(Nc2ccc(O)c3c2C(=O)c2ccccc2C3=O)ccc1C measured_target="SN12C renal" assay_value="> 100 µM"
compound=COc1ccc(/C=C/C(=O)c2cc(CN(C)C)c(O)c(CN(C)C)c2)cc1 measured_target="SN12C renal" assay_value="> 100 µM"
compound="C/C(=N/NC(N)=S)C(CN1CCOCC1)C(C1=C(O)c2ccccc2OC1)c1ccccc1 (stereo unspecified)" measured_target="SN12C renal" assay_value="> 100 µM"
compound=COC(OC)c1cccnc1C measured_target="SN12C renal" assay_value="> 100 µM"
compound="O=C(O)c1c(CC(Cc2ccccc2)C(=O)O)ccc2c1CCC2 (stereo unspecified)" measured_target="SN12C renal" assay_value="> 100 µM"

###

Tested on: SW-620 colon
Assay: NCI tumour cell line growth inhibition, 48 h
Quantity measured: TGI

compound=CCOC(=O)/C=C(/C(=O)OCC)n1cc(C)c(=O)n(Cc2cn(CCCCOC(C)=O)nn2)c1=O quantity_measured=TGI assay_value="> 100 µM"
compound=C[C@@H]([C@H]1CC[C@@]2(C)[C@@H]3CC[C@@H]4C(=CC3=CC[C@]12C)CC[C@H](N(C)C)C4(C)C)N(C)C quantity_measured=TGI assay_value="> 100 µM"
compound="CCOP(=O)(OCC)C(c1ccccc1)N(C(=O)NC(F)(F)F)c1ccc(C)cc1 (stereo not drawn)" quantity_measured=TGI assay_value="> 100 µM"
compound=CN(C)CCN=c1nc2c(c(N)n1-c1ccccc1)c(=S)n(-c1ccccc1)c(=S)n2-c1ccccc1 quantity_measured=TGI assay_value="4.87 µM"
compound="COc1ccc(-c2csc3c2[N+]2(C)C=CC=C2C3N2CCCC2)cc1 (stereo not drawn)" quantity_measured=TGI assay_value="> 100 µM"
compound=O=C(NNC(=O)c1ccc(Cl)cc1NC(=O)C12CC3CC(CC(C3)C1)C2)c1ccc(Cl)cc1 quantity_measured=TGI assay_value="> 100 µM"
compound=O=C1C(=O)N(c2cc(Cl)ccc2Cl)C(=O)C(=O)C1c1nc2ccccc2s1 quantity_measured=TGI assay_value="> 100 µM"
compound=CSCc1ncc(-c2ccc(C(F)(F)F)cc2)c(NC2CCCCCC2)n1 quantity_measured=TGI assay_value="> 10 µM"
